All values here come from paper PMC7966865.

- protocol summary: Cell viability
- Type: cell-based
- condition label: human
experimental readout: CC50 at 24 h

Measured CC50 at 24 h, CN1CCN(c2ccc(C(=O)Nc3cc(-c4nc5ccccc5[nH]4)n[nH]3)cc2)CC1 : > 24 µM

====

- protocol summary: Mouse PK
- Type: in vivo
- condition label: male, ICR, mouse, plasma, iv, 1 mg/kg
experimental readout: Vd (L/kg)
Kindly provide the numeric value in L/kg only, without the unit symbol.

Value of Vd reported for the compound CN1CCN(c2ccc(C(=O)Nc3cc(-c4nc5ccccc5[nH]4)n[nH]3)cc2)CC1 is 1.71

====

- protocol summary: Mouse PK
- Assay type: in vivo
- condition label: male, ICR, mouse, plasma, po, 10 mg/kg
experimental readout: Tmax (min)
Response body: numeric value in min, unit text excluded.

For this molecule ( CN1CCN(c2ccc(C(=O)Nc3cc(-c4nc5ccccc5[nH]4)n[nH]3)cc2)CC1 [Compound 10] ), measured Tmax is 40.2
